# TEST TARGET: UniProtKB Q9UEW8
# ASSAY TEXT: radiometric filter-binding kinase assay, Kinase HotSpot
# CONDITION INFO: compound 0.5 µM; ATP 10 µM
Please provide measured residual activity for the entries that follow.

residual activity in this record for O=C(Nc1cccc(Nc2cc(Nc3cccc(C(F)(F)F)c3)ncn2)c1)C1CC1 : 94.1%

residual activity in this record for COc1ccc(OC)c2c(=S)c3ccccc3[nH]c12 : 94.4%

residual activity in this record for O=C1NC(=O)/C(=C\c2ccc3nccnc3c2)S1 : 104%

residual activity in this record for Oc1ccc(Nc2nc(-c3ccc(Cl)cc3)cs2)cc1 : 94.2%

This collection of values is drawn from the kinase profiling compilation of Christmann-Franck et al. (2016).
